Quick reference for GI50 among some compounds
tested on: SK-MEL-5; assay: NCI tumour cell line growth inhibition, 48 h
Calls of active or inactive are those of the source. Rule as the data show it: active = GI50 up to about 1.1 µM and inactive = higher.

givenSmiles: COc1cc2c(c3c1C=CCO3)C(=O)c1ccccc1C2=O
GI50: 24.7 µM (inactive)
//
givenSmiles: O=C(CSCC(=O)N/N=C\c1ccc(O)c(O)c1O)N/N=C\c1ccc(O)c(O)c1O
GI50: 18.5 µM (inactive)
//
givenSmiles: CCOP(=O)(OCC)C(C)(C)N(C)/C(F)=N/C(F)(F)F
GI50: > 100 µM (inactive)
//
givenSmiles: CCC(=O)c1cn(C)c(=O)c2ccccc12
GI50: > 100 µM (inactive)
//
givenSmiles: COc1nc(C#CC2CCCCC2)nc(OC)n1
GI50: 3.06 µM (inactive)
//
givenSmiles: CC(=O)CC(=O)CCCC(=O)Nc1ccc(Cl)cc1C
GI50: > 100 µM (inactive)
//
givenSmiles: Nc1nc(-c2ccccc2)c(CC(=O)O)s1
GI50: > 100 µM (inactive)
//
givenSmiles: O=C(O)CN1C(=O)c2ccc(NC(=O)C(=O)O)cc2S1(=O)=O
GI50: > 100 µM (inactive)
//
givenSmiles: COC(=O)[C@H]1[C@H](OC(=O)[C@@H](OC)c2ccccc2)ON2CC[C@@H](OC(=O)c3ccccc3)[C@H]12
GI50: > 100 µM (inactive)
//
givenSmiles: COc1ccc2ccc([Se]c3ccc4ccc(OC)cc4c3)cc2c1
GI50: > 100 µM (inactive)
//
givenSmiles: COc1ccc(/C(Cl)=C/c2ccc(Cl)c(Cl)c2)cc1
GI50: 18 µM (inactive)

----------
test system: SK-MEL-28; assay: NCI tumour cell line growth inhibition, 48 h
Calls of active or inactive are those of the source. No stated cut-off is given here; in the data, active = GI50 up to about 1.1 µM and inactive = higher.
Quick reference for GI50 among some compounds

compound: CC(=O)OCC1OC(SC2=N/C(=C\c3cc4c(=O)c5ccccc5sc4s3)C(=O)N2c2ccccc2)C(OC(C)=O)C(OC(C)=O)C1OC(C)=O (stereo not given)
GI50: > 100 µM (inactive)
//
compound: Cc1cc(C)c(OC(=O)Nc2cccc3ccccc23)c(-c2ccccc2)c1
GI50: 31.3 µM (inactive)
//
compound: Nc1nc(-c2ccccc2)c(CC(=O)O)s1
GI50: > 100 µM (inactive)
//
compound: CN(C)c1ccc(C(Cc2ccccc2)C2NC(=S)NC2=O)cc1 (stereo not given)
GI50: > 100 µM (inactive)
//
compound: Cc1cc(O)c2c3c(ccc2c1)C(=O)c1c(O)cccc1C3=O
GI50: > 100 µM (inactive)
//
compound: Nc1ccc(C(=O)N/C(=C\C=C\c2ccco2)c2nc3c(O)nc(S)nc3[nH]2)cc1
GI50: > 100 µM (inactive)
//
compound: CC(=O)C1COC(O)C1C (stereo not given)
GI50: 19.5 µM (inactive)
//
compound: CCN(CC)CC(C)C(=O)/C=C/c1ccc(C)cc1 (stereo not given)
GI50: 1.85 µM (inactive)
//
compound: COc1ccc2c(c1)c1c(n2CCN2CCCCC2)-c2cccc(OC)c2CC1
GI50: 15.4 µM (inactive)
//
compound: N#Cc1c(-c2ccc([N+](=O)[O-])cc2)cc(-c2ccc(Nc3ccnc4cc(C(F)(F)F)ccc34)cc2)[nH]c1=O
GI50: > 100 µM (inactive)

----------
Observed GI50 for HCT-15, reported per entry below.

compound: COc1ccc(C(=O)O)c(Br)c1OCc1ccccc1
GI50: > 100 µM
//
compound: CC/C(Cl)=N\OC(=O)Nc1ccc(F)c(Cl)c1
GI50: 15.2 µM
//
compound: C1CN(c2nnc(N3CCC3)nn2)C1
GI50: > 100 µM
//
compound: COC(=O)[C@H]1[C@H](OC(=O)[C@@H](OC)c2ccccc2)ON2CC[C@@H](OC(=O)c3ccccc3)[C@H]12
GI50: > 100 µM
//
compound: NC(=O)C1C(=O)Oc2cccnc21 (configuration not stated)
GI50: > 100 µM
//
compound: CCc1cccc(C)c1NC(=O)CCc1nnc2s/c(=C\c3cccc4ccccc34)c(=O)n12
GI50: 89.1 µM
//
compound: COc1ccc2c(C(=O)O)cc3cc(OC)c(OC)cc3c2c1
GI50: > 100 µM
//
compound: O=C(O)c1ccc(CI)cc1
GI50: 16 µM
//
compound: C=CCN1C[C@H](C)N([C@H](c2ccc(C(=O)N(CC)CCO)cc2)c2cccc(OC)c2)C[C@H]1C
GI50: > 100 µM
//
compound: CCCC(=O)Nc1cc(/C=C/C(=O)N2CC(CCl)c3c2cc(O)c2[nH]cc(C)c32)n(C)c1 (configuration not stated)
GI50: 0.000117 µM
//
compound: O=C(O)CCC(N/C=C1/N=C(c2ccccc2)OC1=O)C(=O)O (configuration not stated)
GI50: > 100 µM
//
compound: NNC(=O)CCSc1ccccc1
GI50: > 100 µM

----------
system: SN12C; assay: NCI tumour cell line growth inhibition, 48 h
The source made the active and inactive calls. Rule as the data show it: active = GI50 up to about 1.1 µM and inactive = higher.
Quick reference for GI50 among some compounds

compound: CSc1nc(SC)c2ncn(C3CC(Oc4ccc(C)cc4)C(COc4ccc(C)cc4)O3)c2n1 (stereo not given)
GI50: > 100 µM (inactive)
--
compound: COc1ccc2c(C(=O)O)cc3cc(OC)c(OC)cc3c2c1
GI50: > 100 µM (inactive)
--
compound: CC1(SCC(N)C(=O)O)CC(=O)NC1=O (stereo not given)
GI50: > 100 µM (inactive)
--
compound: [O-][S+]1c2ccccc2N=C(c2cccs2)CC1c1ccccc1O (stereo not given)
GI50: > 100 µM (inactive)
--
compound: CCC/N=C/c1c(O)c(O)c(C(C)C)c2cc(C)c(-c3c(C)cc4c(C(C)C)c(O)c(O)c(/C=N/CCC)c4c3O)c(O)c12
GI50: 10.4 µM (inactive)
--
compound: C[N+](C)(C)C1(C(=O)[O-])CC1
GI50: > 100 µM (inactive)
--
compound: S=c1sc2c(n1-c1ccccc1)N=CNC2S (stereo not given)
GI50: 69.3 µM (inactive)
--
compound: COC(=O)[C@@]12CCCC(=O)[C@@H]1[C@H]1CCC[C@H]12
GI50: > 100 µM (inactive)
--
compound: O=C(COc1ccc(OCC(=O)N2C(=O)CN(c3ccc(Cl)cc3)C2=S)cc1)N1C(=O)CN(c2ccc(Cl)cc2)C1=S
GI50: 30.5 µM (inactive)
--
compound: COC(=O)[C@@H]1CN(C(C)=O)C(=O)N1C(=O)OCc1ccccc1
GI50: > 100 µM (inactive)

----------
test system: CAKI-1; assay: NCI tumour cell line growth inhibition, 48 h
The source made the active and inactive calls. Cut-off read from the data, not from the text of the source: active = GI50 up to about 1.1 µM and inactive = higher.
Quick reference for GI50 among some molecules
propertyMeasured: GI50

molecule: Cc1ccc2c(c1)nc1n2C(c2c(F)cccc2F)SC1 (stereo unspecified)
valueReported: 27.9 µM (inactive)

molecule: Cc1nc2ccccc2n1CCc1nc2ccccc2s1
valueReported: > 100 µM (inactive)

molecule: Nc1nc(-c2ccccc2)c(CC(=O)O)s1
valueReported: > 100 µM (inactive)

molecule: COc1ccc(/C(Cl)=C(\C=O)c2ccc([N+](=O)[O-])cc2)cc1OC
valueReported: 9.08 µM (inactive)

molecule: Nc1cccc2cc(Cl)cnc12
valueReported: > 100 µM (inactive)

molecule: CCCCN(CCCC)CCC(O)c1cc(-c2ccc(C(F)(F)F)cc2)nc(-c2ccc(C(F)(F)F)cc2)c1 (stereo unspecified)
valueReported: > 100 µM (inactive)

molecule: CSCCC(NOC(=O)Cc1ccccc1)P(=O)(O)c1ccccc1 (stereo unspecified)
valueReported: > 100 µM (inactive)

molecule: C[C@@H](c1ccccc1)N1C[C@@H](c2ccc3c(c2)OCO3)[C@@H]2C(=O)CCC[C@@H]21
valueReported: > 100 µM (inactive)

molecule: CC[C@]12C=CCN3CC[C@@]4(c5ccc(OC)cc5N(C)[C@H]4[C@@](O)(C(=O)OC)[C@@H]1OC(C)=O)[C@@H]32
valueReported: 15.5 µM (inactive)

molecule: CS(=O)(=O)Nc1ccc(N2Cc3c[nH]c4ccc5nccc2c5c34)cc1
valueReported: 31.5 µM (inactive)

molecule: FC1OC2OC1C(OCc1ccccc1)C(OCc1ccccc1)C2OCc1ccccc1 (stereo unspecified)
valueReported: 35.5 µM (inactive)

----------
tested on: OVCAR-3; assay: NCI tumour cell line growth inhibition, 48 h
Activity calls are given as the source filed them. Rule as the data show it: active = GI50 up to about 1.1 µM and inactive = higher. Peptide text beside a SMILES is read from it. * marks the point of attachment. Cbz = O=C(OCc1ccccc1)*
Possible outcomes: active, inactive

molecule: CC1=CC(O)C(O)C2(C)C1CC1OC(=O)C(O)C3C(C)C(O)C4(O)OCC13C42 (centres undefined)
category: inactive
//
molecule: Cc1c(C)c(S(=O)(=O)N(CCCCCN)OCCCN)c(C)c2c1OC(C)(C)CC2
category: inactive
//
molecule: CCOC(=O)C(C)NC(=O)C(C)NC(=O)C(C)NC(=O)C(C)NC(=O)C(C)NC(=O)C(C)NC(=O)C(C)NC(=O)OCc1ccccc1 (centres undefined) (Cbz-AAAAAAA-OEt; configuration not given here)
category: inactive
//
molecule: CCCC(=O)Nc1cc(/C=C/C(=O)N2CC(CCl)c3c2cc(O)c2[nH]cc(C)c32)n(C)c1 (centres undefined)
category: active
